biological target: recombinant BodoCSP4 (Bradysia odoriphaga); assay: biochemical; format: binding
Sequence (A0A2S0X9L0 entry or part of it): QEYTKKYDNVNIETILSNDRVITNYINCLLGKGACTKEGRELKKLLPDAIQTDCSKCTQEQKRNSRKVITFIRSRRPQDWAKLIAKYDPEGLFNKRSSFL
Property Measured: pKd
Scale: negative log10 of molar concentration, which is what pKd denotes.

State, in one line, measured pKd of c1ccc(Nc2cccc3ccccc23)cc1 [1-NPN, N-phenyl-1-naphthylamine, reference compound]
5.97
